Parameter IC50: see the listing below.
Biological target: Rat NHE3 (Rattus norvegicus, UniProt P26433)
Construct: expressed in transfected cells; host or cells: Opossum kidney (OK) cells (ATCC), electroporation
Sequence (P26433 29-831): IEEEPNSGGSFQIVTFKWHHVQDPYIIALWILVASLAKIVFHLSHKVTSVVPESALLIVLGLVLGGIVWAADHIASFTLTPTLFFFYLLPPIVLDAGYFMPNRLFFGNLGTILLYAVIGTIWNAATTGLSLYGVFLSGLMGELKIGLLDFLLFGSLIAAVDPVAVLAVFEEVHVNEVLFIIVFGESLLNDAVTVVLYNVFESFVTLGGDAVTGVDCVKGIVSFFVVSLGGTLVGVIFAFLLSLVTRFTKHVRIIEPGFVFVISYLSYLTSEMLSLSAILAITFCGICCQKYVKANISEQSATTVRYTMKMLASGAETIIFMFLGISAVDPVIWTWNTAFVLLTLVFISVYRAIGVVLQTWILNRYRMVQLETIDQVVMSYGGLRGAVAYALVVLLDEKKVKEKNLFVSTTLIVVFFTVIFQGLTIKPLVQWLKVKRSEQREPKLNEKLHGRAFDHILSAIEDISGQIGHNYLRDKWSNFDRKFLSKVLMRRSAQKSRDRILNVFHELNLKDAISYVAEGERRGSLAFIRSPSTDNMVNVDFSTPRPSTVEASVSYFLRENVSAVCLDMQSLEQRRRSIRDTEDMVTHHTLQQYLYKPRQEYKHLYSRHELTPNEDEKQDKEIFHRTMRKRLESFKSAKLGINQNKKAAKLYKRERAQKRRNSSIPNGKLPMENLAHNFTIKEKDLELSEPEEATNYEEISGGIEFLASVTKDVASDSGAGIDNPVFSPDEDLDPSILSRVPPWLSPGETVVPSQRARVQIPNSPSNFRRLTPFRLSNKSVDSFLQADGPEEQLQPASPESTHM
Test: Cell-based NHE3 activity under prompt conditions (OK cells, BCECF pH recovery), rat NHE3
Details: prompt conditions; read-out: Prompt Rat NHE3 pIC50 (converted)
Protocol: Cell-based activity under Prompt Conditions. Rat or human NHE3-mediated Na^+-dependent H antiport was measured using a modification of the pH sensitive dye method originally reported by Paradiso (PNAS USA. 81:7436-7440, 1984). Opossum kidney (OK) cells were obtained from the ATCC and propagated per their instructions. […]
// units = nM; emit number, no label

Some solved cases for reference:
MOLECULE	TARGET_SYSTEM	VALUE_UNITS	IC50
CN1Cc2c(Cl)cc(Cl)cc2[C@H](c2cccc(S(=O)(=O)NCCOCCOCCNC(=O)CCC(CCC(=O)NCCOCCOCCNS(=O)(=O)c3cccc([C@@H]4CN(C)Cc5c(Cl)cc(Cl)cc54)c3)(CCC(=O)NCCOCCOCCNS(=O)(=O)c3cccc([C@@H]4CN(C)Cc5c(Cl)cc(Cl)cc54)c3)N(C)C)c2)C1	Rat NHE3 (Rattus norvegicus, UniProt P26433)	nM	67.6
NS(=O)(=O)c1ccc(O[C@H]2c3ccccc3C[C@@H]2N2CCCCC2)cc1 (racemic)	Rat NHE3 (Rattus norvegicus, UniProt P26433)	nM	3160
O=C(O)CN(CCN(CC(=O)O)CC(=O)NCCOCCOCCNS(=O)(=O)c1ccc(O[C@H]2c3ccccc3C[C@@H]2N2CCCCC2)cc1)CC(=O)NCCOCCOCCNS(=O)(=O)c1ccc(O[C@H]2c3ccccc3C[C@@H]2N2CCCCC2)cc1 [compound 65]	Rat NHE3 (Rattus norvegicus, UniProt P26433)	nM	1.41
CC1Cc2c(Cl)cc(Cl)cc2[C@H](c2cccc(S(=O)(=O)NCCOCCOCCNC(=O)CCC(CCC(=O)NCCOCCOCCNS(=O)(=O)c3cccc([C@@H]4CN(C)Cc5c(Cl)cc(Cl)cc54)c3)(CCC(=O)NCCOCCOCCNS(=O)(=O)c3cccc([C@@H]4CN(C)Cc5c(Cl)cc(Cl)cc54)c3)NC(=O)N[C@@H](CC(=O)O)C(=O)O)c2)C1 (some centres unmarked)	Rat NHE3 (Rattus norvegicus, UniProt P26433)	nM	25.1
CN1Cc2c(Cl)cc(Cl)cc2C(c2cccc(NC(=O)[C@H](O)[C@@H](O)[C@H](O)[C@H](O)CO)c2)C1 (stereo in doubt)	Rat NHE3 (Rattus norvegicus, UniProt P26433)	nM	39.8

Turning now to a further molecule:
Look up IC50 for this molecule: O=C(O)CN(CCN(CC(=O)O)CC(=O)NCCOCCOCCNS(=O)(=O)c1ccc(O[C@H]2c3ccccc3C[C@@H]2N2CCCCC2)cc1)CC(=O)NCCOCCOCCNS(=O)(=O)c1ccc(O[C@H]2c3ccccc3C[C@@H]2N2CCCCC2)cc1 (racemic) [compound 48]
28.2

----------
Molecular target: Human NHE3 (Homo sapiens)
Construct: expressed in transfected cells; host or cells: Opossum kidney (OK) cells (ATCC), electroporation
Sequence (P48764 26-834): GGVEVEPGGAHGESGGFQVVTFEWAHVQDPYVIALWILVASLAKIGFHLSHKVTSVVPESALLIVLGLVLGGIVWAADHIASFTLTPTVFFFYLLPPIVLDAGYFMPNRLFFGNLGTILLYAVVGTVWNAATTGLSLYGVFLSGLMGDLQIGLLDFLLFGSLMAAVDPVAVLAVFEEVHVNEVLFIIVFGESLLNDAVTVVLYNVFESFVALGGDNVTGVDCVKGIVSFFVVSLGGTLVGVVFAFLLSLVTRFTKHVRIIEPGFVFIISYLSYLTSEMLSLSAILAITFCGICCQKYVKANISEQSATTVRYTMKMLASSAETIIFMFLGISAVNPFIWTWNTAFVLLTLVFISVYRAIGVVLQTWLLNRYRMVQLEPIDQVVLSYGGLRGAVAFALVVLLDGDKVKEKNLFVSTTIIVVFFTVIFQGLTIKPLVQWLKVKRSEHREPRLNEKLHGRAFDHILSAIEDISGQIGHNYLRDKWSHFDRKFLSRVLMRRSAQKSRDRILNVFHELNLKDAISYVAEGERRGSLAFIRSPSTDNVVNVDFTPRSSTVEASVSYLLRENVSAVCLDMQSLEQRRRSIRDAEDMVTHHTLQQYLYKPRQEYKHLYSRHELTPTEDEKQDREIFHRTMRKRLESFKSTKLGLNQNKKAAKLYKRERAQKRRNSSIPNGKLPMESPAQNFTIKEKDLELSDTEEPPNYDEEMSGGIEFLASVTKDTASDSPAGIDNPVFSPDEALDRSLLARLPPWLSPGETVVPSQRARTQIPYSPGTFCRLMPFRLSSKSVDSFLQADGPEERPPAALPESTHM
Test: Cell-based NHE3 activity under prompt conditions (OK cells, BCECF pH recovery), human NHE3
Settings: prompt conditions
Lab note: anything with Prompt Human NHE3 pIC50 at or over 8 counts as Fulfilled; the rest go in Not fulfilled.

Here are 9 compounds together with their reported answers.
COMPOUND	CLASS_LABEL
CN1Cc2c(Cl)cc(Cl)cc2[C@H](c2cccc(S(=O)(=O)NCCOCCOCCOCCNC(=O)CCN(CCC(=O)NCCOCCOCCOCCNS(=O)(=O)c3cccc([C@@H]4CN(C)Cc5c(Cl)cc(Cl)cc54)c3)CCC(=O)NCCOCCOCCOCCNS(=O)(=O)c3cccc([C@@H]4CN(C)Cc5c(Cl)cc(Cl)cc54)c3)c2)C1	Not fulfilled
C/C(=C\c1cc(F)c(Oc2ccc(S(=O)(=O)NCCOCCOCCOCCNC(=O)N(C)CCCCN(C)C(=O)NCCOCCOCCOCCNS(=O)(=O)c3ccc(Oc4c(F)cc(/C=C(\C)C(=O)N=C(N)N)cc4F)cc3)cc2)c(F)c1)C(=O)N=C(N)N	Fulfilled
CN1Cc2c(Cl)cc(Cl)cc2[C@H](c2cccc(S(=O)(=O)NCCOCCOCCOCCNC(=O)CN(CCN(CC(=O)O)CC(=O)NCCOCCOCCOCCNS(=O)(=O)c3cccc([C@@H]4CN(C)Cc5c(Cl)cc(Cl)cc54)c3)CC(=O)O)c2)C1	Fulfilled
CN1Cc2c(Cl)cc(Cl)cc2[C@H](c2cccc(S(=O)(=O)NCCOCCOCCOCCNC(=O)CN3CCN(CC(=O)NCCOCCOCCOCCNS(=O)(=O)c4cccc([C@@H]5CN(C)Cc6c(Cl)cc(Cl)cc65)c4)CCN(CC(=O)NCCOCCOCCOCCNS(=O)(=O)c4cccc([C@@H]5CN(C)Cc6c(Cl)cc(Cl)cc65)c4)CCN(CC(=O)NCCOCCOCCOCCNS(=O)(=O)c4cccc([C@@H]5CN(C)Cc6c(Cl)cc(Cl)cc65)c4)CC3)c2)C1	Not fulfilled
CN(C)CC(=O)NC(CCC(=O)N(C)CCOCCOCCNS(=O)(=O)c1cccc([C@@H]2CN(C)Cc3c(Cl)cc(Cl)cc32)c1)(CCC(=O)N(C)CCOCCOCCNS(=O)(=O)c1cccc([C@@H]2CN(C)Cc3c(Cl)cc(Cl)cc32)c1)CCC(=O)N(C)CCOCCOCCNS(=O)(=O)c1cccc([C@@H]2CN(C)Cc3c(Cl)cc(Cl)cc32)c1	Not fulfilled
CN1Cc2c(Cl)cc(Cl)cc2[C@H](c2cccc(S(=O)(=O)NCCOCCOCCNC(=O)CCC(CCC(=O)NCCOCCOCCNS(=O)(=O)c3cccc([C@@H]4CN(C)Cc5c(Cl)cc(Cl)cc54)c3)(CCC(=O)NCCOCCOCCNS(=O)(=O)c3cccc([C@@H]4CN(C)Cc5c(Cl)cc(Cl)cc54)c3)NCc3ccc(-c4ccc(Cl)cc4)cc3)c2)C1	Not fulfilled
C/C(=C\c1cc(F)c(Oc2ccc(S(=O)(=O)NCCOCCOCCOCCNC(=O)CN(CCN(CC(=O)O)CC(=O)NCCOCCOCCOCCNS(=O)(=O)c3ccc(Oc4c(F)cc(/C=C(\C)C(=O)N=C(N)N)cc4F)cc3)CC(=O)O)cc2)c(F)c1)C(=O)N=C(N)N	Fulfilled
CCN(CCOCCOCCNC(=O)NCCCN(CCCNC(=O)NCCOCCOCCN(CC)S(=O)(=O)c1cccc([C@@H]2CN(C)Cc3c(Cl)cc(Cl)cc32)c1)CCCNC(=O)NCCOCCOCCN(CC)S(=O)(=O)c1cccc([C@@H]2CN(C)Cc3c(Cl)cc(Cl)cc32)c1)S(=O)(=O)c1cccc([C@@H]2CN(C)Cc3c(Cl)cc(Cl)cc32)c1	Not fulfilled
CN1Cc2c(Cl)cc(Cl)cc2[C@H](c2cccc(S(=O)(=O)NCCOCCOCCNC(=O)CCC(CCC(=O)NCCOCCOCCNS(=O)(=O)c3cccc([C@@H]4CN(C)Cc5c(Cl)cc(Cl)cc54)c3)(CCC(=O)NCCOCCOCCNS(=O)(=O)c3cccc([C@@H]4CN(C)Cc5c(Cl)cc(Cl)cc54)c3)N(C)C)c2)C1	Not fulfilled

Lab note: next compound to report on.
Decide: Prompt Human NHE3 pIC50 of CN1Cc2c(Cl)cc(Cl)cc2C(c2cccc(NC(=O)[C@H](O)[C@@H](O)[C@H](O)[C@H](O)CO)c2)C1 (stereo in doubt) >= 8?
Not fulfilled
